- Tested on: MCF10A
- procedure text: one-nucleolus phenotype percent effect (relative to siNT 0% and siNOL11 100%); higher = more cells with one nucleolus (ribosome biogenesis inhibition)
- measurement setup: 20 nM; 72 h
recorded metric: one-nucleolus phenotype percent effect (%)
State just the number; it will be interpreted in %.

# example entries with known answers
Q: Fill in one-nucleolus phenotype percent effect for record UGGGCGUAUCUGUAUGCUA [hsa-miR-585]
Ans: 41.1

Q: Output one-nucleolus phenotype percent effect of GCGGGGCUGGGCGCGCG [hsa-miR-4508]
Ans: -26.4

Q: Provide one value: measured one-nucleolus phenotype percent effect of GUUUGCACGGGUGGGCCUUGUCU [hsa-miR-557]
Ans: 34.6

***
Q: Provide measured one-nucleolus phenotype percent effect value, entry: UAGGGGCAGCAGAGGACCUGGG [hsa-miR-4688]
Ans: 23.4

Q: Give the measured one-nucleolus phenotype percent effect for UGCUGAUGGCAGAUGUCGGGUCUG [hsa-miR-8075]
Ans: 44.2

Q: Could you please provide reported one-nucleolus phenotype percent effect for ACAGCCCAGCAGUUAUCACGGG [hsa-miR-5685] ? Thanks!
Ans: -1.32

Q: Give the reported value of one-nucleolus phenotype percent effect for this record: UCUGGCUGUGCUGUAAUGCAG [hsa-miR-6504-5p]
Ans: 6.53

Q: Please report one-nucleolus phenotype percent effect for the following sequence: ACAGGGCCGCAGAUGGAGACU [hsa-miR-3918]
Ans: 50.3

Q: Answer with reported one-nucleolus phenotype percent effect of CUCAUCUGCAAAGAAGUAAGUG [hsa-miR-452-3p]
Ans: 48.1

Q: Entry UGGGAGGAGGGGAUCUUGGG [hsa-miR-7106-5p] needs its one-nucleolus phenotype percent effect filled in; supply it.
Ans: -7.27

Q: Check the records and state one-nucleolus phenotype percent effect for CACUGUGUCCUUUCUGCGUAG [hsa-miR-892a]
Ans: 31.9

Q: Assign one-nucleolus phenotype percent effect to the following record: AGGGACUUUCAGGGGCAGCUGU [hsa-miR-365b-5p]
Ans: 4.45

Q: Give me measured one-nucleolus phenotype percent effect, please, for this sequence: CAAUUUAGUGUGUGUGAUAUUU [hsa-miR-32-3p]
Ans: -22.3

====

- Tested on: MCF10A
- procedure text: 5+ nucleoli phenotype percent effect (relative to siNT 0% and siKIF11 100%); higher = more cells with five or more nucleoli
- measurement setup: 20 nM; 72 h
recorded metric: 5+ nucleoli phenotype percent effect (%)
// note: answer is a bare numeric in %

Q: Consider the sequence AUCUAAAUGCAGCAUGCCAGUC [hsa-miR-4799-5p] and give its recorded 5+ nucleoli phenotype percent effect.
Ans: 15

Q: Annotate the sequence UGUGAUAUCAUGGUUCCUGGGA [hsa-miR-3689e] with its measured 5+ nucleoli phenotype percent effect.
Ans: -30.6

Q: Supply 5+ nucleoli phenotype percent effect value. Item: UGGACUGCCCUGAUCUGGAGA [hsa-miR-1288]
Ans: 2.11

Q: // Input: UGGGGAAGGCGUCAGUGUCGGG [hsa-miR-4725-3p] . Output its 5+ nucleoli phenotype percent effect only.
Ans: -3

Q: Annotate the sequence UAUGUAACAUGGUCCACUAACU [hsa-miR-379-3p] with its measured 5+ nucleoli phenotype percent effect.
Ans: 38.4

We now examine a further sequence.
Q: Specify measured 5+ nucleoli phenotype percent effect for UCUUCUCUGUUUUGGCCAUGUG [hsa-miR-942] .
Ans: 12.1

====

- System: MCF10A
- procedure text: one-nucleolus phenotype percent effect (relative to siNT 0% and siNOL11 100%); higher = more cells with one nucleolus (ribosome biogenesis inhibition)
- measurement setup: 20 nM; 72 h
recorded metric: one-nucleolus phenotype percent effect (%)
Quick note: give the figure in %, leave out the unit.

Here's what some known entries look like.
Q: Determine its reported one-nucleolus phenotype percent effect: CCGGCCGCCGGCUCCGCCCCG [hsa-miR-1908-3p]
Ans: -14.6

Q: Return reported one-nucleolus phenotype percent effect. Input sequence: ACUCUAGCUGCCAAAGGCGCU [hsa-miR-1251]
Ans: -4.32

Q: // Input: GAUAUUCAGAGGCUAGGUGG [hsa-miR-6074] . Output its one-nucleolus phenotype percent effect only.
Ans: -6.04

Q: State, in one line, measured one-nucleolus phenotype percent effect of GUUGUGUCAGUUUAUCAAAC [hsa-miR-599]
Ans: -13.5

New cases:
Q: Specify measured one-nucleolus phenotype percent effect for UGUUCCUCUGUCUCCCAGAC [hsa-miR-4326] .
Ans: 18.8

Q: Find the measured one-nucleolus phenotype percent effect of UGGGAGAGCAGGGUAUUGUGGA [hsa-miR-6731-5p] and report it.
Ans: 43

Q: Supply reported one-nucleolus phenotype percent effect belonging to this sequence: UGAGGUAGUAAGUUGUAUUGUU [hsa-miR-98-5p]
Ans: -13

Q: Please report the measured one-nucleolus phenotype percent effect for UCUGUCAUUUCUUUAGGCCAAUA [hsa-miR-215-3p]
Ans: 2.4

Q: Tell us which one-nucleolus phenotype percent effect value is on record for UUGUGGCUGGUCAUGAGGCUAA [hsa-miR-4474-3p]
Ans: 3.27

Q: Report one-nucleolus phenotype percent effect, nothing else, for this sequence: AAGCAUUCUUUCAUUGGUUGG [hsa-miR-1179]
Ans: 1.48

Q: Name the recorded one-nucleolus phenotype percent effect of the sequence listed here: GAGGUUUUCUGGGUUUCUGUUUC [hsa-miR-329-5p]
Ans: -9.91

Q: Output measured one-nucleolus phenotype percent effect for this item: AGUUAGGAUUAGGUCGUGGAA [hsa-miR-1258]
Ans: 6.84

Q: Tell us which one-nucleolus phenotype percent effect value is on record for AAUUCUGUAAAGGAAGAAGAGG [hsa-miR-4778-5p]
Ans: -8.03

Q: # return recorded one-nucleolus phenotype percent effect for input AAUCAUACAGGGACAUCCAGUU [hsa-miR-487a]
Ans: -6.53

Q: Provide measured one-nucleolus phenotype percent effect value, entry: UAGACGUGGUGAAGGAUUGAGUG [hsa-miR-6863]
Ans: 1.02

Q: Quote one-nucleolus phenotype percent effect reported for AUCGUGCAUCCUUUUAGAGUGU [hsa-miR-517c-3p] please.
Ans: 11.8

Q: Given the sequence UGGGCCAGGGAGCAGCUGGUGGG [hsa-miR-4640-5p] , write its reported one-nucleolus phenotype percent effect.
Ans: 15.3

Q: Report one-nucleolus phenotype percent effect, nothing else, for this sequence: UACGUCAUCGUUGUCAUCGUCA [hsa-miR-598]
Ans: -26.8

Q: Return the recorded one-nucleolus phenotype percent effect value; entry: UGACCCCUUCUGUCUCCCUAG [hsa-miR-6846-3p]
Ans: -13.6

Q: Give reported one-nucleolus phenotype percent effect value for ACCUUCCUCUCCAUGGGUCUUU [hsa-miR-3667-3p]
Ans: 18.2

Q: For the sequence AAACAAACAUGGUGCACUUCUU [hsa-miR-495-3p] , report one-nucleolus phenotype percent effect.
Ans: 5.47

====

- System: MCF10A
- procedure text: one-nucleolus phenotype percent effect (relative to siNT 0% and siNOL11 100%); higher = more cells with one nucleolus (ribosome biogenesis inhibition)
- measurement setup: 20 nM; 72 h
Tick TRUE if one-nucleolus phenotype percent effect is 10% or greater. Tick FALSE if one-nucleolus phenotype percent effect is less than 10%.

Some solved cases for reference:
Q: Kindly determine if one-nucleolus phenotype percent effect recorded for UCUCUGGUCUUGCCACCCCAG [hsa-miR-6824-3p] is above or exactly 10%.
Ans: TRUE

Q: Check if one-nucleolus phenotype percent effect >= 10% (inclusive). Item: AUCGUGCAUCCCUUUAGAGUGU [hsa-miR-517b-3p]
Ans: TRUE

Q: Textbook exercise: given the entry UGAUUGUCUUCAUAUCUAGAAC [hsa-miR-4782-3p] , state whether its one-nucleolus phenotype percent effect is greater than or equal to 10%.
Ans: FALSE

Q: Say whether GGCUGGUCAGAUGGGAGUG [hsa-miR-6131] shows one-nucleolus phenotype percent effect of 10% or more.
Ans: FALSE

Q: // inclusive: one-nucleolus phenotype percent effect at least 10%? input: GAAUACUAAGUAAAAAAUCAGUA [hsa-miR-8084]
Ans: FALSE

Q: I'd appreciate it if you could say whether CUGGGAGAGGGUUGUUUACUCC [hsa-miR-30c-1-3p] has one-nucleolus phenotype percent effect at least equal to 10%.
Ans: TRUE

---
Q: Please tell me: is the sequence ACUUGGGCAGGAGGGACCCUGUAUG [hsa-miR-6774-5p] at or over 10% in terms of one-nucleolus phenotype percent effect?
Ans: TRUE

Q: Is one-nucleolus phenotype percent effect for ACCAGGAGGCUGAGGCCCCU [hsa-miR-665] at or above 10%?
Ans: TRUE

Q: Could you please find out whether AUGGGGUGAGAUGGGGAGGAGCAGC [hsa-miR-6812-5p] has one-nucleolus phenotype percent effect that meets 10% or exceeds it?
Ans: TRUE

Q: For this sequence, is measured one-nucleolus phenotype percent effect 10% or higher? UCUGGCUAUCUCACGAGACUGU [hsa-miR-4794]
Ans: TRUE

Q: Would you say GUGAGCCAGUGGAAUGGAGAGG [hsa-miR-6807-5p] shows one-nucleolus phenotype percent effect at minimum 10%?
Ans: FALSE

Q: Decide: is the reported value of one-nucleolus phenotype percent effect for ACCAAGUCUGCGUCAUCCUCUC [hsa-miR-3691-3p] equal to or greater than 10%?
Ans: FALSE

Q: Exam item: decide whether the reported one-nucleolus phenotype percent effect for UAUUGCACUCGUCCCGGCCUCC [hsa-miR-92b-3p] is at least 10%.
Ans: FALSE
